Reference source: paper doi:10.1101/2025.08.03.668247

EXPERIMENTAL TARGET: T1, GST-Egl512-819 (Drosophila melanogaster, UniProt Q9W1K4 512-819)
T1 sequence: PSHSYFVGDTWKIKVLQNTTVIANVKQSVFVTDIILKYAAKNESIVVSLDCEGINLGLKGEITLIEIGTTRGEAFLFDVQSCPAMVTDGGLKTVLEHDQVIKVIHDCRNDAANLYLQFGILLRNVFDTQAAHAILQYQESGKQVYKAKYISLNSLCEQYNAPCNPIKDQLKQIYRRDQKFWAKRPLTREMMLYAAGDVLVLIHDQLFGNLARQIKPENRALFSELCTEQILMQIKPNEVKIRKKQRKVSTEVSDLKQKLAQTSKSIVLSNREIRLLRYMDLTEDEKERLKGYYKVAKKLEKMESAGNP
ASSAY TEXT: competition; vs FAM-K10 TLS; FA: 20 mM HEPES-NaOH pH 7.5, 100 mM NaCl, 10% glycerol, 20 C, 10 nM FAM-RNA; competition: 150 nM Egl512-819 + 10 nM FAM-K10 TLS, same buffer
CONDITION DESCRIPTION: protein: recombinant; tags: N-terminal GST (TEV site); label: 5'-FAM in direct assay; hairpin, 3' overhang 10 nt
READOUT: pIC50
// scale note: pIC50 = -log10(conc_M); give the bare number

Exercise: Give its pIC50 value. Item: K10-flank (K10-10nt) (structured_RNA) RNA: CUUGAUUGUAUUUUUAAAUUAAUUCUUAAAAACUACAAAUUAAGAUCACUCUGU
Key: 7.28
